- test-target: recombinant human kappa (KOR) opioid receptor (Homo sapiens (Human), UniProt P41145)
- method-description: biochemical
- Format: binding
- study-conditions: HEK293 cell membranes, 0.5 nM [3H]diprenorphine
pIC50: −log10 of the molar value. Square brackets hold non-standard residues; d marks the D form. Peptide text beside a SMILES is read from it. * marks the point of attachment. Piperidin1yl(4-NH2,4-CO2Me) = COC(=O)C1(N)CCN(*)CC1; Pyrrolidinyl(3-NH2,3-CO2Me) = COC(=O)C1(N)CCN(*)C1; Pyrrolidino(3-NH2-3-COOH) = NC1(C(=O)O)CCN(*)C1; dAla(cPr) = N[C@H](CC1CC1)C(=O)O; Tic = O=C(O)[C@@H]1Cc2ccccc2CN1
MET means recorded pIC50 is 9 or above; NOT MET means it is below 9.

## Task pIC50 >= 9 for CNC(=O)C(=O)NC1CCN(C(=O)[C@@H](CCCCN)NC(=O)[C@@H](CC(C)C)NC(=O)[C@@H](Cc2ccccc2)NC(=O)[C@H](N)Cc2ccccc2)CC1 ?
## Result MET

## Task Identify whether the reported pIC50 of the following compound is 9 or greater: COC(=O)C1(N)CCN(C(=O)[C@@H](CCCCN)NC(=O)[C@H]2CCCN2C(=O)[C@@H](Cc2ccccc2)NC(=O)[C@H](N)Cc2ccccc2)C1 (some centres unmarked) [Compound 92] (H-[dF][dF][dP][dK]-{Pyrrolidinyl(3-NH2,3-CO2Me)})
## Result NOT MET

## Task Is pIC50 at least 9? Consider COC(=O)C1(N)CCN(C(=O)[C@@H](CCCCN)NC(=O)[C@@H](CC(C)C)NC(=O)[C@@H]2Cc3ccccc3CN2C(=O)[C@H](N)Cc2ccccc2)C1 (stereo partly drawn) [Compound 146] (H-[dF][Tic][dL][dK]-{Pyrrolidinyl(3-NH2,3-CO2Me)})
## Result NOT MET

## Task Textbook exercise: given the entry CC(C)C[C@@H](NC(=O)[C@@H](Cc1ccccc1)NC(=O)[C@H](N)Cc1ccccc1)C(=O)N[C@H](CCCCN)C(=O)NCc1ccnc(C(=O)O)c1 , state whether its pIC50 is greater than or equal to 9.
## Result NOT MET

## Task Hi team, for CC(C)C[C@@H](NC(=O)[C@@H](Cc1ccccc1)NC(=O)[C@H](N)Cc1ccccc1)C(=O)N[C@H](CCCCN)C(=O)NC1CCN(C(=O)C(=O)N(C)C)CC1 , is the recorded pIC50 at or above 9?
## Result NOT MET

## Task Would you say CC(C)C[C@@H](NC(=O)[C@@H](Cc1ccccc1)NC(=O)[C@H](N)Cc1ccccc1)C(=O)N[C@H](CCCCN)C(=O)NC1CCN(C(=O)C(=O)NC2CC2)CC1 shows pIC50 at minimum 9?
## Result NOT MET

## Task Evaluate CC(C)C[C@@H](NC(=O)[C@@H](Cc1ccccc1)NC(=O)[C@H](N)Cc1ccccc1)C(=O)N[C@H](CCCCN)C(=O)N1CCN(C(=O)/C=C/C(=O)O)CC1 : pIC50 at minimum 9?
## Result NOT MET

## Task Hi team, for COC(=O)/C=C/C(=O)NC1CCN(C(=O)[C@@H](CCCCN)NC(=O)[C@@H](CC(C)C)NC(=O)[C@@H](Cc2ccccc2)NC(=O)[C@H](N)Cc2ccccc2)CC1 , is the recorded pIC50 at or above 9?
## Result MET

## Task Answer whether pIC50 of CNC(=O)C(=O)N1CCN(C(=O)[C@@H](CCCCN)NC(=O)[C@@H](CC(C)C)NC(=O)[C@@H](Cc2ccccc2)NC(=O)[C@H](N)Cc2ccccc2)CC1 is greater than or equal to 9.
## Result MET

## Task Please tell me: is the compound NCCCC[C@@H](NC(=O)[C@@H](CC1CC1)NC(=O)[C@@H](Cc1ccccc1)NC(=O)[C@H](N)Cc1ccccc1)C(=O)N1CCC(N)(C(=O)O)C1 (some centres unmarked) [Compound 119] (H-[dF][dF][dAla(cPr)][dK]-{Pyrrolidino(3-NH2-3-COOH)}) at or over 9 in terms of pIC50?
## Result NOT MET

## Task Can CC(C)C[C@@H](NC(=O)[C@@H](Cc1ccccc1)NC(=O)[C@H](N)Cc1ccccc1)C(=O)N[C@H](CCCCN)C(=O)NCc1ccncc1 be said to have pIC50 at or above 9?
## Result NOT MET

## Task Is the recorded value of pIC50 equal to or greater than 9 for this compound? COC(=O)C1(N)CCN(C(=O)CNC(=O)[C@@H](CCCCN)NC(=O)[C@@H](CC(C)C)NC(=O)[C@@H](Cc2ccccc2)NC(=O)[C@H](N)Cc2ccccc2)CC1 [Compound 66] (H-[dF][dF][dL][dK]G-{Piperidin1yl(4-NH2,4-CO2Me)})
## Result NOT MET

## Task Hello, I need to know if CC(C)C[C@@H](NC(=O)[C@@H](Cc1ccccc1)NC(=O)[C@H](N)Cc1ccccc1)C(=O)N[C@H](CCCCN)C(=O)NC[C@H](N)C(=O)O has measured pIC50 not below 9. Thanks!
## Result NOT MET

## Task Record CCCN(C(=O)OC)C1CCN(C(=O)[C@@H](CCCCN)NC(=O)[C@@H](CC(C)C)NC(=O)[C@@H](Cc2ccccc2)NC(=O)[C@H](N)Cc2ccccc2)CC1 ; criterion: pIC50 no lower than 9. Met?
## Result MET

## Task # check: pIC50 of CC(C)C[C@@H](NC(=O)[C@@H](Cc1ccccc1)NC(=O)[C@H](N)Cc1ccccc1)C(=O)N[C@H](CCCCN)C(=O)N1CCC(NC(=O)C[C@H](N)C(N)=O)CC1 is greater than or equal to 9
## Result MET

## Task Hello, I need to know if COC(=O)C1(N)CCN(C(=O)[C@@H](CCCCN)NC(=O)[C@@H](CC(C)C)NC(=O)[C@@H](Cc2ccccc2)NC(=O)[C@H](N)Cc2ccccc2)C1 (some centres unmarked) has measured pIC50 not below 9. Thanks!
## Result MET
